tested on: PRMT1 (protein arginine N-methyltransferase 1); assay: PRMT1 binders on small-molecule microarrays, primary screen, biochemical, small-molecule microarray, 635 nm fluorescence (AID 1088); settings: small-molecule microarray binding, higher = more signal;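 also: binding of Prmt1 protein to compounds spotted on small-molecule microarray slides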
property label: composite z-score

Answered cases to consult:
| smiles text | measured value |
| --- | --- |
| CC(C)CN1CCc2nc(-c3ccccc3)c3c(c2CC1)CO[C@@H](C)C3 | -0.36 |
| CCOC(=O)C1=CC[C@H]2C(=O)N(CC)C(=O)[C@@H]12 | 0.863 |
| O=C1[C@H]2[C@H]3[C@H](O)[C@H](O)CC(=NOCc4ccccc4)[C@@H]3CC[C@H]2C(=O)N1C1CCCCC1 | 1.1 |
| CC(C)C[C@@H]1NC(=O)[C@H]2C[C@@H](C(=O)NCCCCCCN(C)C)[C@@H](c3cccc(OCCO)c3)N2C1=O | 1.53 |
| COC(=O)c1c(CC[C@@H](CO)NC(=O)N[C@H](Cc2ccccc2)Cn2cc(-c3ccccc3N)nn2)oc(C(C)=O)c1C(=O)OC | 1.19 |

Ask: Can you look up the measured composite z-score of C=CC[C@@H]1C=C[C@H](ON=Cc2ccc(C(=O)N3[C@H](c4ccc(C)cc4)[C@@H](C)CC[C@H]3C(=O)OC)cc2)[C@@H](CO)O1 for me?
Reply: 0.537

Ask: Can you look up the measured composite z-score of CCOC(=O)C[C@H]1[C@H](OC(=O)c2ccc(C(=O)c3ccccc3)cc2)[C@@H](NC(=O)c2ccc(-c3ccccc3)cc2)c2cc(OCCCO)ccc2N1C(=O)c1ccc2ccccc2n1 for me?
Reply: 1.44

###

system: wheat germ agglutinin (Triticum aestivum), Alexa647-labelled; test: wheat germ agglutinin binders on compound microarrays, profiling panel, artefact control for SMM control-protein annotation, biochemical, small-molecule microarray, 635/667 nm fluorescence (AID 1140); details: WGA-A647 binding, 635 nm fluorescence, higher = more signal;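 also: score merges 667 nm feature emission with signal to noise over triplicate slides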
# Lookup of reported composite z-score keyed by entry
Number, no unit, nothing else.

Answered cases to consult:
| smiles text | composite z-score |
| --- | --- |
| COc1ccccc1CN1C(=O)c2ccccc2[C@@]2(Cc3ccccc3N(C(C)C)C2=O)[C@@H]1c1ccc(CO)cc1 | 0.57 |
| COCCOC(=O)N1C(=O)[C@@]2(c3cc(C#Cc4ccc(OC)cc4)ccc31)[C@H](C(=O)N1CCN(c3ncccn3)CC1)[C@H]1C(=O)O[C@H](c3ccccc3)[C@H](c3ccccc3)N1[C@@H]2c1ccc(OCCO)cc1 | 0.769 |
| CC(C)=NOCc1cccc(-c2cc(-c3ccccc3)no2)c1 | 0.848 |
| O=C(NN=C1C[C@@H](O)[C@@H](O)[C@@H]2[C@@H]3C(=O)N(c4cccc(Oc5ccccc5)c4)C(=O)[C@@H]3CC[C@@H]12)OCc1ccccc1 | 0.764 |
| CC(C)CON=C1C[C@@H](O)[C@@H](O)[C@@H]2[C@@H]3C(=O)N(C[C@@H]4CCCO4)C(=O)[C@@H]3CC[C@H]12 | 0.0098 |
| COc1ccc([Si](C)(C)[C@H]2[C@H](CCO)O[C@@]3(C(=O)N(Cc4cccc(NC(=O)[C@H](C)O)c4)c4ccccc43)[C@@H]2C)cc1 | 0.23 |

Please look at the following molecule next.
Ask: Please state recorded composite z-score (tested on wheat germ agglutinin (Triticum aestivum), Alexa647-labelled) of O=C(NN=C1C[C@@H](O)[C@@H](O)[C@@H]2[C@@H]3C(=O)N(c4ccc(F)cc4F)C(=O)[C@@H]3CC[C@@H]12)OCc1ccccc1
Reply: 0.336
